The entries below are paired with their reported half-life.
test-description: Half-life in aqueous solution.
Assay type: ADME
Value expressed in h; do not type the unit.

INSERT INTO assay_data (molecule, unit_text, meas_value) VALUES
  ('CC(C)Nc1nc2cc(NC(=O)C(C)NC(=O)OCc3ccccc3)ccc2c(=O)o1 (configuration not stated)', 'h', 171);

We next turn to a different molecule, shown below.
// CCOc1nc2c(Cl)ccc(Cl)c2c(=O)o1 : half-life value = 1

---

measured-on: Capsid scaffolding protein (Herpes simplex virus (type 1 / strain 17))
test-description: Inhibitory activity against herpes simplex type 1 protease (HSV-1 pr).
measure-name: pIC50
pIC50 is defined as minus the log10 of a concentration measured in mol/L.

INSERT INTO results (compound, meas_value) VALUES
  ('CC(NC(=O)OCc1ccccc1)C(=O)Nc1ccc2c(=O)oc([C@H](C)NC(=O)OCc3ccccc3)nc2c1 (stereo partly drawn)', 4.92),
  ('Cc1cccc2nc([C@H](C)NC(=O)OCc3ccccc3)oc(=O)c12', 3.92);

Hey, Capsid scaffolding protein (Herpes simplex virus (type 1 / strain 17)) data for C[C@H](NC(=O)OCc1ccccc1)c1nc2cccc(F)c2c(=O)o1 : pIC50 came out at 4.30

Kindly note: Capsid scaffolding protein (Herpes simplex virus (type 1 / strain 17)), CC(C)Nc1nc2ccccc2c(=O)o1 , pIC50 value reported: 4.60

Entry O=c1oc(Oc2ccccc2)nc2ccccc12 under Capsid scaffolding protein (Herpes simplex virus (type 1 / strain 17)) had pIC50 of 5.00

// assay Capsid scaffolding protein (Herpes simplex virus (type 1 / strain 17)), entry CC(Nc1nc2ccccc2c(=O)o1)c1ccccc1 (stereo not drawn) , pIC50 value = 4.22

Assay Capsid scaffolding protein (Herpes simplex virus (type 1 / strain 17)), sample CC(C)Nc1nc2cc(NC(=O)C(C)NC(=O)OCc3ccccc3)ccc2c(=O)o1 (stereo not drawn) , pIC50 read: 5.30

---

measured-on: Capsid scaffolding protein (Herpes simplex virus (type 1 / strain 17), UniProt P10210)
Sequence (P10210 1-247 limits assumed): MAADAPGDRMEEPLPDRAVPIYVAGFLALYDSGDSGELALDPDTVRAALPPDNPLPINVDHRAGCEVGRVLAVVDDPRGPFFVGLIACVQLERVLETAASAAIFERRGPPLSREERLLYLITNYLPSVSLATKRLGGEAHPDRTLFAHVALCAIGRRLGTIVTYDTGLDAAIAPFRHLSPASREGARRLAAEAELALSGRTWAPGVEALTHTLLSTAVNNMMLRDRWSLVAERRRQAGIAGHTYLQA
test-description: Inhibitory activity against herpes simplex type 1 protease (HSV-1 pr).
measure-name: pIC50
On this scale, pIC50 is minus log10 of a concentration expressed in M (mol/L).

Here's what some known entries look like.
INSERT INTO assay_data (molecule, meas_value) VALUES
  ('CCOc1nc2ccccc2c(=O)o1', 4.60),
  ('CCOc1nc2cccc(F)c2c(=O)o1', 4.12);

In the following, a different molecule is considered.
Reported pIC50 for COC(=O)C(C)Nc1nc2ccccc2c(=O)o1 (configuration not stated) was 4.60

---

The reader will find reported IC50 values listed item by item below.
measured-on: Capsid scaffolding protein (Herpes simplex virus (type 1 / strain 17), UniProt P10210)
test-description: Inhibitory activity against herpes simplex type 1 protease (HSV-1 pr).
Provide the reading as a plain figure in µM.

Please fill in: IC50 reported for CCOc1nc2c(Cl)ccc(Cl)c2c(=O)o1 = 1.5

Value of IC50 reported for the molecule C[C@H](NC(=O)OCc1ccccc1)c1nc2ccccc2c(=O)o1 is 50

---

# pIC50 per record follows
measured-on: Capsid scaffolding protein (Herpes simplex virus (type 1 / strain 17), UniProt P10210)
test-description: Inhibitory activity against herpes simplex type 1 protease (HSV-1 pr).
Please treat pIC50 as minus the base-10 logarithm of the molar concentration.

For orientation, consider the following solved cases.
INSERT INTO measurements (compound, measure_name, meas_value) VALUES
  ('CCCCNc1nc2ccccc2c(=O)o1', 'pIC50', 3.52),
  ('CC(C)Nc1nc2cc(NC(=O)C(CC(N)=O)NC(=O)OCc3ccccc3)ccc2c(=O)o1 (centres undefined)', 'pIC50', 4.82),
  ('COc1ccc(Oc2nc3ccccc3c(=O)o2)cc1', 'pIC50', 5.60),
  ('C[C@H](NC(=O)OCc1ccccc1)c1nc2cc(N)ccc2c(=O)o1', 'pIC50', 3.82),
  ('CC(C)Nc1nc2cc(N)ccc2c(=O)o1', 'pIC50', 4.26),
  ('CCOc1nc2cccc(C)c2c(=O)o1', 'pIC50', 4.82);

Moving on to another compound below.
I looked up C=CCOc1nc2ccccc2c(=O)o1 and its pIC50 for Capsid scaffolding protein (Herpes simplex virus (type 1 / strain 17), UniProt P10210) was 4.82

---

measured-on: Capsid scaffolding protein (Herpes simplex virus (type 1 / strain 17))
test-description: Inhibitory activity against herpes simplex type 1 protease (HSV-1 pr).
measure-name: IC50 (µM)
Number only, in µM; omit the unit.

Some compounds with known IC50 results, for comparison:
INSERT INTO assay_data (compound_string, meas_value) VALUES
  ('CC(C)COC(=O)Nc1ccc2c(=O)oc(NC(C)C)nc2c1', 50),
  ('CCOc1nc2cccc(CC)c2c(=O)o1', 20),
  ('CCOc1nc2cccc(Cl)c2c(=O)o1', 7);

Now consider a different compound.
Documented IC50 of C[C@@H](NC(=O)OCc1ccccc1)c1nc2cccc(F)c2c(=O)o1 : 200
